# System: Spodoptera litura
# methodNotes: Insecticidal effect for Spodoptera litura by immersion treatment of host crop root (Test Example 4)
# Assay type: in vivo
# conditionNotes: 25 ppm; soybean root immersion 5 days; second-instar larvae of Spodoptera litura; fifth day after
reportedEndpoint: rate of dead pests (%)

[[record]]
compound = "O=C(c1c(F)cccc1F)N1COCN(c2ccc([S+]([O-])C(F)(F)C(F)F)cc2Cl)C1=O (centres unmarked) [I-17]"
reportedendpoint = "rate of dead pests (%)"
reported = 100

[[record]]
compound = "CN1CN(CC(F)(F)F)C(=O)N(C(=O)c2c(F)cccc2F)C1 [III-144]"
reportedendpoint = "rate of dead pests (%)"
reported = 100

[[record]]
compound = "O=C(c1c(F)cccc1Cl)N1COCN(c2ccc(SC(F)F)cc2F)C1=O [I-218]"
reportedendpoint = "rate of dead pests (%)"
reported = 100

[[record]]
compound = "C[S+]([O-])c1ccc(N2COCN(C(=O)c3c(F)cccc3Cl)C2=O)c(F)c1 (centres unmarked) [I-206]"
reportedendpoint = "rate of dead pests (%)"
reported = 100

[[record]]
compound = "O=C(c1c(F)cccc1F)N1COCN(c2c(F)cc(SC(F)(F)F)cc2F)C1=O [I-104]"
reportedendpoint = "rate of dead pests (%)"
reported = 100


Taken from patent US20050159599A1.
